The reported measurements were obtained from patent US8729091B2.

- target_or_test_system: human GPBAR1 receptor (Homo sapiens)
- assay_name: functional cAMP assay in CHO-dhfr(minus) cells expressing human GPBAR1 receptors
- details: cAMP increase (TR-FRET) in CHO-dhfr(minus) cells expressing human GPBAR1; compounds incubated 30 min at 30° C.
result_type: EC50 (nM)

                           substance_smiles  measured_result
0  O=C(c1cnccc1Oc1cc(Cl)c(O)cc1Cl)N1CCN(C2CC2)c2ccccc21               10
1  COC(=O)CNC(=O)c1cc(Cl)c(Oc2cc(C)ncc2C(=O)N2CCN(C3CC3)c3ccccc32)cc1Cl               40

a. O=C(Nc1nnn[nH]1)c1cc(Cl)c(Oc2ccncc2C(=O)N2CCN(C3CC3)c3ccccc32)cc1Cl
b. O=C(c1cnccc1Oc1cc(Cl)ccc1Cl)N1CCN(CC2CC2)c2ccccc21
Decide: a or b , by lowest recorded EC50. Answer with the label corresponding to your selection.
b

====

- target_or_test_system: UniProtKB Q8TDU6
- assay_name: functional cAMP assay in CHO-dhfr(minus) cells expressing human GPBAR1 receptors
- details: cAMP increase (TR-FRET) in CHO-dhfr(minus) cells expressing human GPBAR1; compounds incubated 30 min at 30° C.
pEC50: −log10 of the molar value.
result_type: pEC50

>>> df
                                   compound  target_or_test_system  result_type  measured_result
0  CC(C)(Oc1cc(Cl)c(Oc2ccncc2C(=O)N2CCN(C3CC3)c3ccccc32)cc1Cl)C(=O)O [Example 61]       UniProtKB Q8TDU6        pEC50             6.40

A. CCOC(=O)C(C)(C)Oc1cc(Cl)c(Oc2ccncc2C(=O)N2CCN(C3CC3)c3ccccc32)cc1Cl [Example 60]
B. COC(=O)c1cc(NC(=O)c2cc(Cl)c(Oc3ccncc3C(=O)N3CCN(C4CC4)c4ccccc43)cc2Cl)cn1C [Example 41]
C. Cc1cc(Oc2cc(Cl)c(C(=O)NCc3nnn[nH]3)cc2Cl)c(C(=O)N2CCN(C3CC3)c3ccccc32)cn1 [Example 72]
# ascending order, key=pEC50 Would you mind listing the labels in the order asked for?
C, A, B
(C: 6.40, A: 6.70, B: 7.00)

a. NC(=O)c1cc(Cl)c(Oc2ccncc2C(=O)N2CCN(C3CC3)c3ccccc32)cc1Cl [Example 52]
b. O=C(NC(CO)CO)c1cc(Cl)c(Oc2ccncc2C(=O)N2CCN(C3CC3)c3ccccc32)cc1Cl [Example 51]
c. O=C(O)c1ccc(NC(=O)c2cc(Cl)c(Oc3ccncc3C(=O)N3CCN(C4CC4)c4ccccc43)cc2Cl)cc1 [Example 44]
d. COc1cc(F)c(F)cc1N(C)C(=O)c1cnccc1Oc1cc(Cl)ccc1Cl [Example 19]
# sort list by recorded pEC50, greatest to least Would you mind listing the labels in the order asked for?
a, c, d, b
(a: 8.00, c: 7.70, d: 7.00, b: 6.52)

====

- target_or_test_system: human GPBAR1 receptor (Homo sapiens, UniProt Q8TDU6)
- Sequence (Q8TDU6 1-330): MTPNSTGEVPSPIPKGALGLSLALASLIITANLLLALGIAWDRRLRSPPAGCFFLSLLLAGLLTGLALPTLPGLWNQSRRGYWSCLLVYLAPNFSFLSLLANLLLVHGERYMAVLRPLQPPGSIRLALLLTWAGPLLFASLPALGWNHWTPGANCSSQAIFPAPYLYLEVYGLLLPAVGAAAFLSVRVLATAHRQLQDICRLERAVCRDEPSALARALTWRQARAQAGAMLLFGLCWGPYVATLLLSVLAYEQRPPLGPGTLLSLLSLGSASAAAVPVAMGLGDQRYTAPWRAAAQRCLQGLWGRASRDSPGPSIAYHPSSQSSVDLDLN
- assay_name: functional cAMP assay in CHO-dhfr(minus) cells expressing human GPBAR1 receptors
- details: cAMP increase (TR-FRET) in CHO-dhfr(minus) cells expressing human GPBAR1; compounds incubated 30 min at 30° C.
result_type: EC50 (nM)

Use these answered entries as a reference point.
                           substance_smiles  result_type  units_symbol  measured_result
0  CN(C(=O)c1cnccc1Oc1cc(Cl)ccc1Cl)c1cc(C(F)(F)F)cc(C(F)(F)F)c1         EC50            nM             1400
1  Cc1cc(Oc2cc(Cl)c(C(=O)O)cc2Cl)c(C(=O)N2CCN(C3CC3)c3ccccc32)cn1         EC50            nM              300
2  N#Cc1cc(Cl)c(Oc2ccncc2C(=O)N2CCN(C3CC3)c3ccccc32)cc1Cl         EC50            nM                3
3  CN(C(=O)c1cnccc1Oc1cc(Cl)ccc1Cl)c1cccc2c1NCCC2         EC50            nM              100
4  O=C(c1cnccc1Oc1cc(Cl)ccc1Cl)N1CCN(C2CC2)c2cc(Cl)c(F)cc21         EC50            nM               50
5  Cc1cc(Oc2cc(Cl)c(Br)cc2Cl)c(C(=O)N2CCN(C3CC3)c3ccccc32)cn1         EC50            nM               20

a. O=C(c1cc(Cl)c(Oc2ccncc2C(=O)N2CCN(C3CC3)c3ccccc32)cc1Cl)N(CCO)CCO
b. CCOC(=O)COc1cc(Cl)c(Oc2ccncc2C(=O)N2CCN(C3CC3)c3ccccc32)cc1Cl
c. O=C(c1cnccc1Oc1cc(Cl)ccc1Cl)N1CCCc2cc(F)c(F)cc21
d. O=C(O)COc1cc(Cl)c(Oc2ccncc2C(=O)N2CCN(C3CC3)c3ccccc32)cc1Cl
e. Cc1cc(Oc2cc(Cl)c(C(=O)NCCC(=O)O)cc2Cl)c(C(=O)N2CCN(C3CC3)c3ccccc32)cn1
# ascending order, key=EC50 Would you mind listing the labels in the order asked for?
b, c, e, d, a

I. Cc1cc(Oc2cc(Cl)c(C(=O)Nc3nnn[nH]3)cc2Cl)c(C(=O)N2CCN(C3CC3)c3ccccc32)cn1
II. CN(C)c1ncccc1N(C)C(=O)c1cnccc1Oc1cc(Cl)ccc1Cl
Between the entries labelled I and II , which has a larger EC50 value on record? Answer with the label corresponding to your selection.
II

1. O=C(NCCS(=O)(=O)O)c1cc(Cl)c(Oc2ccncc2C(=O)N2CCN(C3CC3)c3ccccc32)cc1Cl
2. COC(=O)c1cc(Cl)c(Oc2cc(C)ncc2C(=O)N2CCN(C3CC3)c3ccccc32)cc1Cl
Decide: 1 or 2 , by lowest recorded EC50. Answer with the label corresponding to your selection.
2
(2: 20 nM, 1: 100 nM)

P. NC(=O)CCNC(=O)c1cc(Cl)c(Oc2ccncc2C(=O)N2CCN(C3CC3)c3ccccc32)cc1Cl
Q. CCOC(=O)c1sc(NC(=O)c2cc(Cl)c(Oc3ccncc3C(=O)N3CCN(C4CC4)c4ccccc43)cc2Cl)nc1C
Decide: P or Q , by lowest recorded EC50. Answer with the label corresponding to your selection.
P
(P: 100 nM, Q: 600 nM)

a. O=C(O)CNC(=O)c1cc(Cl)c(Oc2ccncc2C(=O)N2CCN(C3CC3)c3ccccc32)cc1Cl
b. COC(=O)CNC(=O)c1cc(Cl)c(Oc2ccncc2C(=O)N2CCN(C3CC3)c3ccccc32)cc1Cl
Decide: a or b , by lowest recorded EC50. Answer with the label corresponding to your selection.
b

====

- target_or_test_system: human GPBAR1 receptor (Homo sapiens, UniProt Q8TDU6)
- Sequence (Q8TDU6 1-330): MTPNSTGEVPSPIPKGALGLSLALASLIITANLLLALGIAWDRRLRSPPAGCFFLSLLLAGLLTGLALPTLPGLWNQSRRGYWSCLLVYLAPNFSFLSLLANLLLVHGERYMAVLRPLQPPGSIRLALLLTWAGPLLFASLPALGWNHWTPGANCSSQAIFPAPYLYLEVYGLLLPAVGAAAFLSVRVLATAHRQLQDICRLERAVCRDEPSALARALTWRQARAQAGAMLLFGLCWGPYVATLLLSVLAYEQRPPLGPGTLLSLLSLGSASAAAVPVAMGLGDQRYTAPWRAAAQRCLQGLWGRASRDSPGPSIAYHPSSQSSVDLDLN
- assay_name: functional cAMP assay in CHO-dhfr(minus) cells expressing human GPBAR1 receptors
- details: cAMP increase (TR-FRET) in CHO-dhfr(minus) cells expressing human GPBAR1; compounds incubated 30 min at 30° C.
result_type: EC50 (nM)

Use these answered entries as a reference point.
                                   compound                     target_or_test_system  result_type  measured_result
0  COc1ccccc1N(C)C(=O)c1cnccc1Oc1cc(Cl)ccc1Cl [Example 14]  human GPBAR1 receptor (Homo sapiens, UniProt Q8TDU6)         EC50              100
1  CCOC(=O)CCNC(=O)c1cc(Cl)c(Oc2ccncc2C(=O)N2CCN(C3CC3)c3ccccc32)cc1Cl [Example 33]  human GPBAR1 receptor (Homo sapiens, UniProt Q8TDU6)         EC50               20
2  COc1ncccc1N(C)C(=O)c1cncnc1Oc1cc(Cl)ccc1Cl [Example 80]  human GPBAR1 receptor (Homo sapiens, UniProt Q8TDU6)         EC50               90

A. O=C(c1c[n+]([O-])ccc1Oc1cc(Cl)ccc1Cl)N1CCN(C2CC2)c2ccccc21 [Example 75]
B. COC(=O)c1ccc(NC(=O)c2cc(Cl)c(Oc3ccncc3C(=O)N3CCN(C4CC4)c4ccccc43)cc2Cl)cc1 [Example 43]
Decide: A or B , by lowest recorded EC50. Answer with the label corresponding to your selection.
A

a. CN(C)c1ccccc1N(C)C(=O)c1cnccc1Oc1cc(Cl)ccc1Cl [Example 16]
b. O=C(O)CCNC(=O)c1cc(Cl)c(Oc2ccncc2C(=O)N2CCN(C3CC3)c3ccccc32)cc1Cl [Example 34]
Decide: a or b , by lowest recorded EC50. Answer with the label corresponding to your selection.
a
(a: 40 nM, b: 300 nM)
